Target: Human TRPC6 (Homo sapiens)
Construct: expressed in transfected cells
Sequence (Q9Y210 whole entry): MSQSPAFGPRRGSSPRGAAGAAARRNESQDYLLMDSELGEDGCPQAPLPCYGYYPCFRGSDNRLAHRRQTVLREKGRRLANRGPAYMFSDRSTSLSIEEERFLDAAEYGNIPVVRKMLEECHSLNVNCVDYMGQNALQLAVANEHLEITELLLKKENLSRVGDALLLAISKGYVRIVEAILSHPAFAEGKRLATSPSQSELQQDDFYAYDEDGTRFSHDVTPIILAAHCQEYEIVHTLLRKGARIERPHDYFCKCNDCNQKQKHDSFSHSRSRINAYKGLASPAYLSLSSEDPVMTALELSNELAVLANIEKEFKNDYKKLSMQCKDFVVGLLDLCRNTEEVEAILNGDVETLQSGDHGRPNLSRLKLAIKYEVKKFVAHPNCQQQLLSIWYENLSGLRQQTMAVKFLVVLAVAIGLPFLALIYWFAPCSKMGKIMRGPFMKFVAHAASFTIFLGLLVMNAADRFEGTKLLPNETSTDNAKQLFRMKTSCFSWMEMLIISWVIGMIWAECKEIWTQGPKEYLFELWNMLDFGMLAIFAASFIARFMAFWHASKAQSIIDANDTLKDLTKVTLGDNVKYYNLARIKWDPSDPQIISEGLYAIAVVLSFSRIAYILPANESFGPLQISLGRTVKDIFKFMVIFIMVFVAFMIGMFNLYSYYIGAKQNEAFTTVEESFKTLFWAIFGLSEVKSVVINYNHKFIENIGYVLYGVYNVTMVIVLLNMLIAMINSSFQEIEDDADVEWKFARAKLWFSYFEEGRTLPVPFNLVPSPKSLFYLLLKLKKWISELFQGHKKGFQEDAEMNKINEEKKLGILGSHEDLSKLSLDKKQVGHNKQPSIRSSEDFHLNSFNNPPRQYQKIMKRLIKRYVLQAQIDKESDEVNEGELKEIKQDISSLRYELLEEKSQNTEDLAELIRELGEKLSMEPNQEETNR
Assay: Evaluation of TRPC6 channel inhibitory activity (1), FLIPR Calcium 5 Assay Kit, OAG stimulation (Compound Nos. 1-1293)
Format: cell-based
Details: Human TRPC6 stably-expressing cells, OAG 30 μM, FLIPR Calcium 5 Assay Kit; read-out: Inhibitory activity (pIC50 class) (converted)
Experimental: Evaluation of TRPC6 Channel Inhibitory Activity (1) (Compound Nos. 1-1293) In order to investigate TRPC6 channel inhibitory activity of the compounds, evaluation was conducted using FLIPR® Calcium 5 Assay Kit (Molecular Devices) in accordance with the following procedure. […] A volume of 12.5 μL of a compound solution was added into each well while the fluorescence was measured with FLIPR tetra. […]
compounds and their reported IC50

These recorded examples may help you get a feel for the data.
Cc1nc(OCCC(C)C)cc(Oc2cc(C#N)ccc2-c2ccc(CCN)cc2)n1 = > 1 µM
Cc1cc(Oc2cc(C#N)ccc2-c2ccc(CCN)nc2)cc(N2CCOCC2)n1 = < 0.01 µM
Cc1sc(N2CCOCC2)nc1C(=O)c1cc(C#N)ccc1-c1ncc(CN)cn1 = > 1 µM
Cc1nc(Oc2cc(C#N)ccc2-c2ncc([C@H](O)CN)cn2)cc(N2C[C@@H](C)O[C@@H](C)C2)n1 = 0.01 to 1 µM

### Prompt Check the records and state IC50 for Cn1nc(C2CCC2)cc1Oc1cc(C#N)ccc1-c1ncc(C(O)CN)cn1 (centres unmarked)
### Response < 0.01 µM

### Prompt Name the recorded IC50 of the compound listed here: Cn1nc(C2CCOCC2)cc1Oc1cc(C#N)ccc1-c1cnc(CCN)cn1
### Response 0.01 to 1 µM

### Prompt Consider the compound Cc1nc(Oc2cc(C#N)ccc2-n2cc([C@@H](O)CN)cn2)cc(-c2cccc(C(F)(F)F)c2)n1 and give its recorded IC50.
### Response 0.01 to 1 µM

### Prompt Using known records, supply IC50 for Cc1nc(Oc2cc(C#N)ccc2-c2nc(C)c(C(O)CN)s2)cc(N2CCOCC2)n1 (centres unmarked)
### Response > 1 µM
